# Tested on: SR leukemia
# ASSAY_OVERVIEW: NCI-60 one-dose screen, 48 h
# STUDY_CONDITIONS: 10 µM unless noted
This is part of a sample that, as a whole, favours compounds with a hit. Of some 83,000 tested, about 20% had one in any assay. Calls of active or inactive are those of the source. Rule for the calls: active = growth percent below 10; inactive = the rest.
Please answer using one outcome listed in true (1) = active, false (0) = inactive

**Query** Please indicate how the test categorized `C=CC[Se]C(=O)c1ccccc1OC(C)=O` .
**Result** true (1)

**Query** Please indicate how the test categorized `Nc1cc2nc3ccccc3nc2cc1N` .
**Result** false (0)

**Query** Please indicate how the test categorized `CC1=C(CCCOC(=O)CN)C2=C(C)C3(CC3)[C@@](C)(O)C(=O)C2=C1` .
**Result** false (0)

**Query** Please indicate how the test categorized `O=C1NC(=O)C(=Cc2cccn2CCCCCn2c3ccccc3c(=O)c3ccccc32)C(=O)N1` .
**Result** false (0)

**Query** Please indicate how the test categorized `CC[C@H](C)[C@H](NC(=O)N[C@@H](C)c1ccccc1)C(=O)N(C)[C@H](C[C@@H](OC(C)=O)c1nc(C(=O)N[C@@H](Cc2ccccc2)C[C@H](C)C(=O)OC)cs1)C(C)C` .
**Result** true (1)

The origin of these recorded values is PubChem BioAssay (NCI).
